Tested on: rat erythrocytes
Assay: Hemolysis assay
Type: cell-based
Settings: red cells of rat
Method: The hemolysis assay was performed using rat erythrocytes in phosphate‐buffered saline (PBS), as reported by Mendes et al.^[ [45] ^] Animal studies were approved by the Laboratory Animal Resource Center of Gwangju Institute of Science and Technology. […] Aliquots (150 µL) of the supernatant were transferred to fresh 96‐well plates, and the absorbance of each well was measured at 540 nm using a microplate reader. […]
Structures can show the parent of a compound that is named as a salt. Square brackets hold non-standard residues; d marks the D form. Peptide text beside a SMILES is read from it. Gly(N(CH2)2(3-indolyl)) = O=C(O)CNCCc1c[nH]c2ccccc12; Nspe = C[C@H](NCC(=O)O)c1ccccc1; Nlys = NCCCCNCC(=O)O

molecule	measured.target	HC10
C[C@@H](c1ccccc1)N(CC(=O)N(CCCCN)CC(=O)N(CCc1c[nH]c2ccccc12)CC(=O)N(CCc1c[nH]c2ccccc12)CC(N)=O)C(=O)CN(CCCCN)C(=O)CN(CCCCN)C(=O)CN(C(=O)CN(C(=O)CN(CCCCN)C(=O)CN(C(=O)CN(C(=O)CNCCCCN)[C@@H](C)c1ccccc1)[C@@H](C)c1ccccc1)[C@@H](C)c1ccccc1)[C@@H](C)c1ccccc1 [29-HCl] (H-[Nlys][Nspe][Nspe][Nlys][Nspe][Nspe][Nlys][Nlys][Nspe][Nlys][Gly(N(CH2)2(3-indolyl))][Gly(N(CH2)2(3-indolyl))]-NH2)	rat erythrocytes	> 100 µM
C[C@@H](c1ccccc1)N(CC(N)=O)C(=O)CN(CCCCN)C(=O)CN(CCCCN)C(=O)CN(C(=O)CN(C(=O)CN(CCCCN)C(=O)CN(C(=O)CN(C(=O)CN(CCCCN)C(=O)CN(CCc1c[nH]c2ccccc12)C(=O)CN(CCc1c[nH]c2ccccc12)C(=O)CNCCCCN)[C@@H](C)c1ccccc1)[C@@H](C)c1ccccc1)[C@@H](C)c1ccccc1)[C@@H](C)c1ccccc1 [32-HCl]	rat erythrocytes	> 100 µM
C[C@@H](c1ccccc1)N(CC(N)=O)C(=O)CN(C(=O)CN(CCCCN)C(=O)CN(C(=O)CN(C(=O)CN(CCCCN)C(=O)CN(C(=O)CN(C(=O)CN(CCCCN)C(=O)CN(CCc1c[nH]c2ccccc12)C(=O)CN(CCc1c[nH]c2ccccc12)C(=O)CNCCCCN)[C@@H](C)c1ccccc1)[C@@H](C)c1ccccc1)[C@@H](C)c1ccccc1)[C@@H](C)c1ccccc1)[C@@H](C)c1ccccc1 [14-HCl]	rat erythrocytes	19.2 µM
C[C@@H](c1ccccc1)N(CC(=O)N(CCCCN)CC(=O)N(CCc1c[nH]c2ccccc12)CC(=O)N(CCc1c[nH]c2ccccc12)CC(N)=O)C(=O)CN(CCCCN)C(=O)CN(CCCCN)C(=O)CN(C(=O)CN(C(=O)CN(CCCCN)C(=O)CN(C(=O)CN(C(=O)CNCCCCN)[C@@H](C)c1ccccc1)[C@@H](C)c1ccccc1)[C@@H](C)c1ccccc1)[C@@H](C)c1ccccc1 [29-AcOH] (H-[Nlys][Nspe][Nspe][Nlys][Nspe][Nspe][Nlys][Nlys][Nspe][Nlys][Gly(N(CH2)2(3-indolyl))][Gly(N(CH2)2(3-indolyl))]-NH2)	rat erythrocytes	> 100 µM

----------
assay: Analytical reversed-phase HPLC elution (hydrophobicity); type: physicochemical; conditions: Table S1; analytical RP-HPLC, SunFire C18, water/ACN + 0.1% TFA, 5 to 100% B linear over 30 min, 1 mL/min, UV 220 nm; approximate comparison of hydrophobicity
Square brackets hold non-standard residues; d marks the D form. Peptide text beside a SMILES is read from it. Gly(N(CH2)2(3-indolyl)) = O=C(O)CNCCc1c[nH]c2ccccc12; Nspe = C[C@H](NCC(=O)O)c1ccccc1; Nlys = NCCCCNCC(=O)O
quantity.kind: HPLC elution (% MeCN)

molecule	quantity.kind	measurement
C[C@@H](c1ccccc1)N(CC(N)=O)C(=O)CN(CCCCN)C(=O)CN(CCCCN)C(=O)CN(C(=O)CN(C(=O)CN(CCCCN)C(=O)CN(CCc1c[nH]c2ccccc12)C(=O)CN(C(=O)CN(CCCCN)C(=O)CN(C(=O)CN(C(=O)CNCCCCN)[C@@H](C)c1ccccc1)[C@@H](C)c1ccccc1)[C@@H](C)c1ccccc1)[C@@H](C)c1ccccc1)[C@@H](C)c1ccccc1	HPLC elution	49.4
C[C@H](NCC(=O)N(CCCCN)CC(=O)N(CC(=O)N(CC(=O)N(CCCCN)CC(=O)N(CC(=O)N(CC(=O)N(CCCCN)CC(=O)N(CC(=O)N(CC(=O)N(CCCCN)CC(=O)N(CCCCN)CC(N)=O)[C@@H](C)c1ccccc1)[C@@H](C)c1ccccc1)[C@@H](C)c1ccccc1)[C@@H](C)c1ccccc1)[C@@H](C)c1ccccc1)[C@@H](C)c1ccccc1)c1ccccc1 [peptoid 53] (H-[Nspe][Nlys][Nspe][Nspe][Nlys][Nspe][Nspe][Nlys][Nspe][Nspe][Nlys][Nlys]-NH2)	HPLC elution	48.5
C[C@@H](c1ccccc1)N(CC(=O)N(CCCCN)CC(=O)N(CC(=O)N(CC(=O)N(CCCCN)CC(=O)N(CC(=O)N(CC(=O)N(CCCCN)CC(=O)N(CCc1c[nH]c2ccccc12)CC(=O)N(CCc1c[nH]c2ccccc12)CC(N)=O)[C@@H](C)c1ccccc1)[C@@H](C)c1ccccc1)[C@@H](C)c1ccccc1)[C@@H](C)c1ccccc1)C(=O)CN(CCCCN)C(=O)CNCCCCN [peptoid 31] (H-[Nlys][Nlys][Nspe][Nlys][Nspe][Nspe][Nlys][Nspe][Nspe][Nlys][Gly(N(CH2)2(3-indolyl))][Gly(N(CH2)2(3-indolyl))]-NH2)	HPLC elution	50.2
C[C@@H](c1ccccc1)N(CC(=O)N(CCCCN)CC(=O)N(CC(=O)N(CC(=O)N(CCCCN)CC(=O)N(CC(=O)N(CC(=O)N(CCCCN)CC(=O)N(CCCCN)CC(N)=O)[C@@H](C)c1ccccc1)[C@@H](C)c1ccccc1)[C@@H](C)c1ccccc1)[C@@H](C)c1ccccc1)C(=O)CN(C(=O)CN(CCCCN)C(=O)CNCCc1c[nH]c2ccccc12)[C@@H](C)c1ccccc1 [peptoid 57] (H-[Gly(N(CH2)2(3-indolyl))][Nlys][Nspe][Nspe][Nlys][Nspe][Nspe][Nlys][Nspe][Nspe][Nlys][Nlys]-NH2)	HPLC elution	49.1

----------
system: rat erythrocytes; assay: Hemolysis assay; format: cell-based
Where a name gives a salt, the structure may show the parent alone. Square brackets hold non-standard residues; d marks the D form. Peptide text beside a SMILES is read from it. Gly(N(CH2)2(3-indolyl)) = O=C(O)CNCCc1c[nH]c2ccccc12; Nspe = C[C@H](NCC(=O)O)c1ccccc1; Nphe = O=C(O)CNCc1ccccc1; Nlys = NCCCCNCC(=O)O
quantity.kind: Hmax (100 µM) (%)

compound	measurement
C[C@@H](c1ccccc1)N(CC(=O)N(CCCCN)CC(=O)N(CC(=O)N(CC(=O)N(CCCCN)CC(=O)N(CC(=O)N(CC(=O)N(CCCCN)CC(=O)N(CC(=O)N(CCc1c[nH]c2ccccc12)CC(N)=O)[C@@H](C)c1ccccc1)[C@@H](C)c1ccccc1)[C@@H](C)c1ccccc1)[C@@H](C)c1ccccc1)[C@@H](C)c1ccccc1)C(=O)CN(CCc1c[nH]c2ccccc12)C(=O)CNCCCCN [peptoid 17] (H-[Nlys][Gly(N(CH2)2(3-indolyl))][Nspe][Nlys][Nspe][Nspe][Nlys][Nspe][Nspe][Nlys][Nspe][Gly(N(CH2)2(3-indolyl))]-NH2)	87.3
C[C@@H](c1ccccc1)N(CC(=O)N(CCCCN)CC(=O)N(CC(=O)N(CC(=O)N(CCCCN)CC(=O)N(CC(=O)N(CC(=O)N(CCCCN)CC(=O)N(CC(=O)N(CC(N)=O)Cc1ccccc1)Cc1ccccc1)[C@@H](C)c1ccccc1)[C@@H](C)c1ccccc1)[C@@H](C)c1ccccc1)[C@@H](C)c1ccccc1)C(=O)CN(C(=O)CNCCCCN)[C@@H](C)c1ccccc1 [peptoid 44] (H-[Nlys][Nspe][Nspe][Nlys][Nspe][Nspe][Nlys][Nspe][Nspe][Nlys][Nphe][Nphe]-NH2)	97.9
C[C@@H](c1ccccc1)N(CC(=O)N(CCCCN)CC(=O)N(CCc1c[nH]c2ccccc12)CC(=O)N(CCc1c[nH]c2ccccc12)CC(N)=O)C(=O)CN(CCCCN)C(=O)CN(CCCCN)C(=O)CN(C(=O)CN(C(=O)CN(CCCCN)C(=O)CN(C(=O)CN(C(=O)CNCCCCN)[C@@H](C)c1ccccc1)[C@@H](C)c1ccccc1)[C@@H](C)c1ccccc1)[C@@H](C)c1ccccc1 [29-HCl] (H-[Nlys][Nspe][Nspe][Nlys][Nspe][Nspe][Nlys][Nlys][Nspe][Nlys][Gly(N(CH2)2(3-indolyl))][Gly(N(CH2)2(3-indolyl))]-NH2)	4.3
C[C@@H](c1ccccc1)N(CC(=O)N(CCCCN)CC(=O)N(CCc1c[nH]c2ccccc12)CC(=O)N(CCc1c[nH]c2ccccc12)CC(N)=O)C(=O)CN(CCCCN)C(=O)CN(CCCCN)C(=O)CN(Cc1ccccc1)C(=O)CN(Cc1ccccc1)C(=O)CN(CCCCN)C(=O)CN(C(=O)CN(C(=O)CNCCCCN)[C@@H](C)c1ccccc1)[C@@H](C)c1ccccc1 [peptoid 40] (H-[Nlys][Nspe][Nspe][Nlys][Nphe][Nphe][Nlys][Nlys][Nspe][Nlys][Gly(N(CH2)2(3-indolyl))][Gly(N(CH2)2(3-indolyl))]-NH2)	8.9
